Each item that follows carries a reported inhibition.
Target: Nuclear receptor coactivator 3 (Homo sapiens) (UniProt Q9Y6Q9)
Sequence (Q9Y6Q9 whole entry, looked up): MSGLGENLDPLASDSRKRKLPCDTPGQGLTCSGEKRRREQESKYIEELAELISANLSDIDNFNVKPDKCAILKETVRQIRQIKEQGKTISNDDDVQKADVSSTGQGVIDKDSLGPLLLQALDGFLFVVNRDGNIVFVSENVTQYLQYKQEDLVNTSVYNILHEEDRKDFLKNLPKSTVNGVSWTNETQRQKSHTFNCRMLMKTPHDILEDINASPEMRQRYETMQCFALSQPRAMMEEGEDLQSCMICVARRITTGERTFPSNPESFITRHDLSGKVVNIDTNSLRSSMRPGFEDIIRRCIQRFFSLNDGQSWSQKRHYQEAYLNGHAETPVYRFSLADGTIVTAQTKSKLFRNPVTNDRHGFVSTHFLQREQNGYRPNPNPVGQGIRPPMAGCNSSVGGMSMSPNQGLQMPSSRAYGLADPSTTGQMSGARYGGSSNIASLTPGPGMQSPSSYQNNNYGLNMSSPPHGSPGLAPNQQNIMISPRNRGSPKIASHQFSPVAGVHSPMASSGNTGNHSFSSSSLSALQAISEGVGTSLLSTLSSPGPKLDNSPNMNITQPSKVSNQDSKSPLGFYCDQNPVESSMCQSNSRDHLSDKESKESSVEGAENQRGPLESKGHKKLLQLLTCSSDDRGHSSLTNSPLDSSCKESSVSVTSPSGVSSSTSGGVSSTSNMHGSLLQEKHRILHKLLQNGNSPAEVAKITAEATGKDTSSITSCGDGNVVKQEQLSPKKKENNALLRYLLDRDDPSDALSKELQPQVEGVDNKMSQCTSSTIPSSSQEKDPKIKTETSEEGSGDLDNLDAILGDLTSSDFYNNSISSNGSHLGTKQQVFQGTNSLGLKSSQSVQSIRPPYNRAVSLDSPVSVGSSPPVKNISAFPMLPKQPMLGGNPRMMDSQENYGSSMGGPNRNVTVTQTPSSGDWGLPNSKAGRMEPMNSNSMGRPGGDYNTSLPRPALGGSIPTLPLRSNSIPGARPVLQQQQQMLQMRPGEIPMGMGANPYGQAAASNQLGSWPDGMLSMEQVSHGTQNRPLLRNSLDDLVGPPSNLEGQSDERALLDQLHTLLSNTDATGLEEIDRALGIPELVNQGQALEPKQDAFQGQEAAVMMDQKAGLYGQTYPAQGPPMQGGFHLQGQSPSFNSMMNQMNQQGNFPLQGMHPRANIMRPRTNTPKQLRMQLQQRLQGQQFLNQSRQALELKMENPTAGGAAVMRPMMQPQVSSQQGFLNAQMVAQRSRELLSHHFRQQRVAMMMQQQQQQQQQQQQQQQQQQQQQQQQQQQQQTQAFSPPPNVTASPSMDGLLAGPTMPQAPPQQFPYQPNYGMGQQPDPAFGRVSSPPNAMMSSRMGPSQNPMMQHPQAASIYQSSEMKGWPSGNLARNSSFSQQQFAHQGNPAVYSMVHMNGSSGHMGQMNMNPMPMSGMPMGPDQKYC
Experiment: SRC3 coactivator transcriptional activity inhibitors, confirmation, cell-based, luminescence, quadruplicate (AID 588792);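 further: 0% = DMSO treated cells and 100% = gossypol at 36 µM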
Details: HEK293 GAL4-SRC3 luciferase reporter, at 3.6 µM, active compounds read high
Hi! Could you send only the number? It should be in %, unit omitted.

1) C=CCOn1c(C)c(C(C)=O)c2c3nonc3ccc21 = 42
2) Cn1c(/C(C#N)=C/c2ccc(-c3ccc(S(N)(=O)=O)cc3)o2)nc2ccccc21 = 27.9
3) CCCCC(=O)NC(c1ccccc1)c1ccc2cccnc2c1O (configuration not stated) = 53.3
4) Cn1nc(CC(=O)Nc2ccc3c(c2)OCCO3)c2ccccc2c1=O = 9.58
5) COc1cc(C2C(C#N)=C(SC)NC3=C2C(=O)CCC3)ccc1O (configuration not stated) = 20.9

Given the entry CC[n+]1c(/C=C/N(C)c2ccccc2)oc2ccccc21 , report its measured inhibition.
34.7

Given the entry C=C1C(=O)OC2CC1C(O)CC(C)=CCCC(C)=CC(O)CC2C (configuration not stated) , report its measured inhibition.
22.9

###

Target: Steroidogenic factor 1 (Homo sapiens) (UniProt Q13285)
Sequence (Q13285 whole entry, looked up): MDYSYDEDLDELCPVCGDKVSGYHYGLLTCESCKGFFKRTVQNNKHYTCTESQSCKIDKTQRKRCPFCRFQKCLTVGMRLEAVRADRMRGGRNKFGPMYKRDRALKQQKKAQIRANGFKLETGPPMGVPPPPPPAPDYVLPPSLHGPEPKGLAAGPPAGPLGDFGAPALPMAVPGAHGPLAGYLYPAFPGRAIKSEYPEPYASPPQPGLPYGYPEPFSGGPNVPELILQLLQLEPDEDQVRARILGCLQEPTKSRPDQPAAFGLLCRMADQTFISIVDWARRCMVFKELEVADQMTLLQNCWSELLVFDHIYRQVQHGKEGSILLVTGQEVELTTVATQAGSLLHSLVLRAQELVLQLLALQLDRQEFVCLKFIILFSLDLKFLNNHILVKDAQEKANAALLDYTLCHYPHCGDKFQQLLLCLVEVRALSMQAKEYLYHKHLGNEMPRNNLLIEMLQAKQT
Experiment: SF1 (NR5A1) inverse agonists, counter-screen for LRH-1 inverse agonist project, cell-based, luminescence, high throughput (AID 651614);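 further: cells cotransfected with StAR promoter reporter and SF1 expression vector; 0% = vehicle on cells with receptor and 100% = vehicle on cells lacking receptor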
Settings: cell-based SF1 luciferase reporter, at 3.6 µM, active compounds read high
Active and inactive are the calls of the source. Rule as the data show it: active = inhibition above about 44%; inactive = the rest.
assay_metric: inhibition

Observe how each entry below is paired with its result.
1) C[C@H]1O[C@@H](O[C@H]2[C@@H](O)C[C@H](O[C@H]3[C@@H](O)C[C@H](O[C@H]4CC[C@@]5(C)[C@H](CC[C@@H]6[C@@H]5C[C@@H](O)[C@]5(C)[C@@H](C7=CC(=O)OC7)CC[C@]65O)C4)O[C@@H]3C)O[C@@H]2C)C[C@H](O)[C@@H]1O = 97.7% (active)
2) COc1ccccc1-n1nnnc1S(=O)(=O)Cc1ccc(Cl)cc1 = 40.4% (inactive)
3) O=C(CSc1nnc(Cc2cccs2)n1-c1ccccc1)Nc1ccc2c(c1)OCCO2 = 31.1% (inactive)
4) CCN(CC)c1nc(C)c(C(C)=O)cc1C#N = 57% (active)
5) CCC(C)(C)n1nnnc1CN1CCC(O)(c2cccc(C(F)(F)F)c2)CC1 = 57.2% (active)
6) CCCCCCCn1c2c(c(=N)c3c1CCC3)CCCC2 = 95.8% (active)

Test system Steroidogenic factor 1 (Homo sapiens) (UniProt Q13285); read-out inhibition; what value for CCc1ccccc1NC(=O)CSc1nnc([C@@H]2CCCN2C(=O)OC(C)(C)C)o1 ?
59% (active)

Test system Steroidogenic factor 1 (Homo sapiens) (UniProt Q13285); read-out inhibition; what value for O=[N+]([O-])c1ccc(Sc2nnnn2-c2ccccc2)c(Cl)c1 ?
37.7% (inactive)

Test system Steroidogenic factor 1 (Homo sapiens) (UniProt Q13285); read-out inhibition; what value for CC1=C(C(=O)OCc2ccc3c(c2)OCO3)C(c2ccc(F)cc2)NC(=O)N1 (centres undefined) ?
62.8% (active)

###

Test system: transactivating tegument protein VP16 (Human herpesvirus 1)
Assay: VP16 transactivation reporter inhibitors, counter-screen for SRC2 inhibitor project, cell-based, luminescence, single concentration (AID 652007)
Conditions: cell-based VP16 transactivation luciferase reporter, at 8.9 µM, active compounds read high
assay_metric: inhibition (%)
Hi! Could you send only the number? It should be in %, unit omitted.

Observe how each entry below is paired with its result.
1. Cc1cc(C(=O)COC(=O)c2ccccc2O)c(C)n1Cc1cccs1 = 81
2. Cc1nc2c(-c3ccc(F)cc3)cnn2c(N)c1-c1ccccc1 = 74.5
3. COc1ccc(CN=C(Nc2ccccc2)SC2CC(=O)NC2=O)cc1 (stereo not drawn) = -5.45
4. O=C(CCl)Nc1ccc(C(=O)NCC2COc3ccccc3O2)cc1 (stereo not drawn) = 71.2
5. CCOc1ccc(CN(C)C(=O)CCl)cc1 = 30.9

Given the entry COC(=O)c1cccc2c1-c1ccccc1/C2=N/O , report its measured inhibition.
21.1
